systemUnderTest: T1, EsCas13d, nuclease-dead (Eubacterium siraeum, UniProt B0MS50, R295A;H300A;R849A;H854A)
T1 sequence: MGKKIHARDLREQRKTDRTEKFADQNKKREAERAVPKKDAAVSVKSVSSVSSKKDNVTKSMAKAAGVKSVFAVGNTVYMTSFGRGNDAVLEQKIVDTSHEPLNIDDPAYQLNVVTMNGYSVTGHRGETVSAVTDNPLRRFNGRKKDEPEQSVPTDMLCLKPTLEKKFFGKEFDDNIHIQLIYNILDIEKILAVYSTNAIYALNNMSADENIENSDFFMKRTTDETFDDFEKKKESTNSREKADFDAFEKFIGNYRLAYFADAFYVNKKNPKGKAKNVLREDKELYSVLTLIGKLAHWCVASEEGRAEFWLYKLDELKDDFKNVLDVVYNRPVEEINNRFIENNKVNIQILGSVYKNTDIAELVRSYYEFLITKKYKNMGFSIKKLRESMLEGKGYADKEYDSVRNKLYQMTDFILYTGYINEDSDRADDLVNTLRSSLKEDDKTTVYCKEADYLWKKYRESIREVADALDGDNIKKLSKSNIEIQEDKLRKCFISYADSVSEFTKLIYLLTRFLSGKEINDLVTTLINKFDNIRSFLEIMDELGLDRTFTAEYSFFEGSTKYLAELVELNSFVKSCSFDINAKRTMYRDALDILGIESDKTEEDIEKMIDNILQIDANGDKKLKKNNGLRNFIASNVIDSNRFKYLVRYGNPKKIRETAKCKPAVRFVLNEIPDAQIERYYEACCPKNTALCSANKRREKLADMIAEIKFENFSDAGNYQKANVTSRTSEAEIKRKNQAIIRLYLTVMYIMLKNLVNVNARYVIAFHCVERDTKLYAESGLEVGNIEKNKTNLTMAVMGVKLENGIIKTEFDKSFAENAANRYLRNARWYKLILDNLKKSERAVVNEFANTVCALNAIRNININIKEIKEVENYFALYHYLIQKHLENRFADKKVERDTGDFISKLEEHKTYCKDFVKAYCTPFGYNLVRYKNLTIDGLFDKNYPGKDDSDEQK
protocol: crRNA (strand 1, pre-loaded); Mg2+; 40 mM Tris-HCl pH 7.5, 150 mM NaCl, 6 mM MgCl2, 1 mM DTT, 0.1% Tween-20, 0.2 mg/ml BSA; 25 C; 10 min per concentration, then washed
conditionLabel: tags: His6-TwinStrep-SUMO cleaved; N-terminal SNAP kept (SNAP-Surface 488); label: 3' end held by stalled T7 RNA polymerase
pKd: −log10 of the molar value.
Known pKd of a selection of binders

| binder | pKd |
| --- | --- |
| target 1 G15A,A16U (mixed) RNA 1: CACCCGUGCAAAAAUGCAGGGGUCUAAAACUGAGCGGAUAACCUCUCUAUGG RNA 2: GGGAAUGGAUCCACAUCUACGAAUUCGUACCAUAGUAAGGUUAUCCGCUCACCGAGAUCGGAAGAGCACACGU | 7.61 |
| target 1 insG 3' of 16,insC 3' of 16 (mixed) RNA 1: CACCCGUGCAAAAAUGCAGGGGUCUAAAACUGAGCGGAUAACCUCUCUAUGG RNA 2: GGGAAUGGAUCCACAUCUACGAAUUCGUACCAUAGAGCGAGGUUAUCCGCUCACCGAGAUCGGAAGAGCACACGU | 7.50 |
| target 1 A1U,G17A (mixed) RNA 1: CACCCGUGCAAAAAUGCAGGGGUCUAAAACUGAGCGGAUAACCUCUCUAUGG RNA 2: GGGAAUGGAUCCACAUCUACGAAUUCGUACCAUAAAGAGGUUAUCCGCUCUCCGAGAUCGGAAGAGCACACGU | 7.44 |
| target 3 G4A,A5U (mixed) RNA 1: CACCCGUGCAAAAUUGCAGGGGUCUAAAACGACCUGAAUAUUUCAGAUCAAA RNA 2: GGGAAUGGAUCCACAUCUACGAAUUCGUUUUUGAUCUGAAAUAUUCUAGUCUGCAGAUCGGAAGAGCACACGU | 7.71 |
